# Target Or Test System: GPC3 (analyte of Tables 9 and 10) (UniProt P51654 25-559, limits assumed)
# Assay Protocol: SPR (Biacore T200), purified antibody captured through Fc, GPC3 as analyte, 1:1 model
Readout Type: Kd
Please make sure the unit comes right after the number.

INPUT: Quick one: Kd of 9VH1VL3-hIgG1 (antibody, V domains shown, Humanized LAb19309, full-length human IgG1/kappa; also called 9VH1VL3-hIgG1 mAb) VH: QVQLVQSGAEVKKPGASVKVSCKASGYTFTDYEMHWVRQAPGQRLEWMGGIDPETGNTAYSQKFKGRVTITRDTSASTAYMELSSLRSEDTAVYYCARYYSFAYWGQGTLVTVSS VL: DIVMTQSPDSLAVSLGERATINCRSSQTIVHSNGNTYLEWYQQKPGQPPKLLIYKVSNRFSGVPDRFSGSGSGTDFTLTISSLQAEDVAVYYCFQVSHVPYTFGGGTKLEIKR ?
OUTPUT: 1.53 nM

INPUT: Quick one: Kd of Chimeric LAb19309-hIgG1 (antibody, V domains shown, The mouse VH/VL numbers follow the parallel order of the lists, as for LAb19309) VH: QVQLQQSGAELVRPGASVTLSCKASGYTFTDYEMHWVKQTPVHGLEWIGGIDPETGNTAYSQKFKGKATLTADKSSSTAYMEVRSLTSEDSAVYYCTRYYSFAYWGQGTLVTVSA VL: DVLMTQTPLSLPVNLGDQASISCRSSQTIVHSNGNTYLEWYLQKPGQSPKLLIYKVSNRFSGVPDRFSGSGSGTDFTLRISRVEAEDLGVYYCFQVSHVPYTFGGGTKLEIKR ?
OUTPUT: 3.56 nM

INPUT: Quick one: Kd of 9VH3VL3-hIgG1 (antibody, V domains shown, Humanized LAb19309, full-length human IgG1/kappa) VH: QVQLVQSGAEVKKPGASVKVSCKASGYTFTDYEMHWVRQATGQGLEWMGGIDPETGNTAYSQKFKGRVTMTRNTSISTAYMELSSLRSEDTAVYYCARYYSFAYWGQGTLVTVSS VL: DIVMTQSPDSLAVSLGERATINCRSSQTIVHSNGNTYLEWYQQKPGQPPKLLIYKVSNRFSGVPDRFSGSGSGTDFTLTISSLQAEDVAVYYCFQVSHVPYTFGGGTKLEIKR ?
OUTPUT: 1.13 nM

These data points were gathered from patent US20230088461A1.
